- TEST_TARGET: human glucocorticoid receptor (GR) complex (Homo sapiens, UniProt P04150)
- Construct: made in house; host or cells: insect expression system (baculovirus lysate)
- ASSAY_NAME: Glucocorticoid receptor competitive binding assay (fluorescence polarization, TAMRA-labeled dexamethasone probe)
- ASSAY_SETUP: compounds of Formula (IA)
- Method: Compounds of the invention were evaluated for binding to the steroid receptor by a fluorescence polarization competitive binding assay. Detailed descriptions for preparation of recombinant glucocorticoid receptor (GR) complex used in the assay is described in U.S. patent application Pub. […] The wavelengths for maximum excitation and emission of the fluorescent probe should first be measured. […] The affinity of the probe for the steroid receptor was then determined in a titration experiment. […]
METRIC_NAME: activity in the GR binding assay

Recorded activity in the GR binding assay, per entry:
# COMPOUND, TEST_TARGET, activity in the GR binding assay
rows = [
    ("COc1ccc(F)cc1C(C)(C)CC(O)(Cn1ccc2cccnc21)C(F)(F)F (centres unmarked)", "human glucocorticoid receptor (GR) complex (Homo sapiens, UniProt P04150)", "potent activity"),
    ("Cc1c(CC(O)(CC(C)(C)c2cccc(F)c2)C(F)(F)F)[nH]c2ccccc12 (centres unmarked)", "human glucocorticoid receptor (GR) complex (Homo sapiens, UniProt P04150)", "potent activity"),
    ("CSc1cc2c(c(C(C)(C)CC(O)(Cc3[nH]c4ccccc4c3C#N)C(F)(F)F)c1)OCC2 (centres unmarked)", "human glucocorticoid receptor (GR) complex (Homo sapiens, UniProt P04150)", "potent activity"),
    ("Cc1ccc(F)cc1C(C)(C)CC(O)(Cc1cc2cnccc2[nH]1)C(F)(F)F (centres unmarked)", "human glucocorticoid receptor (GR) complex (Homo sapiens, UniProt P04150)", "potent activity"),
]

Read the next record carefully.
# compound CC(C)(CC(O)(Cc1ccnc2ccccc12)C(F)(F)F)c1cccc(-c2ccccc2)c1 (centres unmarked) ; its activity in the GR binding assay = potent activity

----------
- TEST_TARGET: human glucocorticoid receptor (GR) complex (Homo sapiens, UniProt P04150)
- Construct: made in house; host or cells: insect expression system (baculovirus lysate)
- Sequence (P04150 1-777): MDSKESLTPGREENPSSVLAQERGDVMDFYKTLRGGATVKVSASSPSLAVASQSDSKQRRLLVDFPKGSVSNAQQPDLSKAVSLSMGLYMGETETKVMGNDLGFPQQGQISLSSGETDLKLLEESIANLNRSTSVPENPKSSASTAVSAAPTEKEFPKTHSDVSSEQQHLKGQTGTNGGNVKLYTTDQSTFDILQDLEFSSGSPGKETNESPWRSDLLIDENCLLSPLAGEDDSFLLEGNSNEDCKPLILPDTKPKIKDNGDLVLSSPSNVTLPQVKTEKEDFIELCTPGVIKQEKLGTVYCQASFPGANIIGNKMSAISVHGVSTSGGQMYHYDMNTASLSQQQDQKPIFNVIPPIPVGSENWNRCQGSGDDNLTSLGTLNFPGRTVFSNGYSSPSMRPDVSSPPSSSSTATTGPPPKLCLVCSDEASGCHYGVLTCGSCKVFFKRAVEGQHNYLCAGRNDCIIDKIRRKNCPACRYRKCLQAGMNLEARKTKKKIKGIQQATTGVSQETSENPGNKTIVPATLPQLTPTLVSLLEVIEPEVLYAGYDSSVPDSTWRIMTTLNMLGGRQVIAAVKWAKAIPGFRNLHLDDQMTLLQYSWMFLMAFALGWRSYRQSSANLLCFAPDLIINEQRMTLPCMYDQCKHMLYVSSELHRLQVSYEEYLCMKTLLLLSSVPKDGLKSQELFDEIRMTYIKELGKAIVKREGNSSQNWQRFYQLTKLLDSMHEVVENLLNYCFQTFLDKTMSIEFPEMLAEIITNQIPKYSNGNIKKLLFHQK
- ASSAY_NAME: Glucocorticoid receptor competitive binding assay (fluorescence polarization, TAMRA-labeled dexamethasone probe)
- ASSAY_SETUP: compounds of Formula (IA)
METRIC_NAME: activity in the GR binding assay

# MOLECULE, TEST_RESULT
data = [
    ("CC(C)(CC(O)(Cc1cc2ccccc2[nH]1)C(F)(F)F)c1ccc(F)cc1 (stereo not drawn)", "potent activity"),
    ("CN(C)C(=O)c1ccc2cc(CC(O)(CC(C)(C)c3cc(F)ccc3O)C(F)(F)F)[nH]c2c1 (stereo not drawn)", "potent activity"),
    ("COc1ccc(C)cc1C(C)(C)CC(O)(Cc1cc2c(C)cc(C#N)cc2[nH]1)C(F)(F)F (stereo not drawn)", "potent activity"),
]
